- Test system: DU-145
- Method summary: Cytotoxicity against human DU145 cells after 48 hrs by MTT assay
- Format: functional, cell-based
- Condition description: DU-145, 48 h
Observable: IC50 (µM)
Express the result in µM but write the number alone.

IN: What value of IC50 has been reported for the following compound? COc1ccc(N/C=C\C(=O)c2c(-c3ccc(Cl)cc3)nc3ccccn23)cc1
OUT: 10.8

IN: Which IC50 value belongs to O=C(/C=C\Nc1ccc(Br)cc1)c1c(-c2ccc(Cl)cc2)nc2ccccn12 ?
OUT: 1.5

IN: Which IC50 is reported for this compound? COc1ccc(-c2nc3ccccn3c2C(=O)/C=C\Nc2cnc3ccccc3c2)cc1
OUT: 5.28

IN: Recorded IC50 for O=C(/C=C\Nc1ccc2ncccc2c1)c1c(-c2ccc(Cl)cc2)nc2ccccn12 , please?
OUT: 13.6

IN: Which IC50 value is on record for COc1ccc(-c2nc3ccccn3c2C(=O)/C=C\Nc2cc(OC)cc(OC)c2)cc1 ?
OUT: 6.26

IN: Query: IC50; subject: COc1ccc(-c2nc3ccccn3c2C(=O)/C=C\Nc2ccc3ncccc3c2)cc1
OUT: 4.72

IN: Which measured IC50 value corresponds to COc1ccc(-c2nc3ccccn3c2C(=O)/C=C\Nc2ccc(F)cc2)cc1 ?
OUT: 6.13

IN: I have this compound here, O=C(/C=C\Nc1ccc(Br)cc1)c1c(-c2ccccc2)nc2ccccn12 , and I need its recorded IC50.
OUT: 1.82

IN: What does the data say about its IC50? Entry: COc1ccc(-c2nc3ccccn3c2C(=O)/C=C\Nc2ccc(Br)cc2)cc1
OUT: 1.45

IN: Which value of IC50 has been reported for COc1cc(N/C=C\C(=O)c2c(-c3ccc(Cl)cc3)nc3ccccn23)cc(OC)c1OC in the records?
OUT: 3.25

IN: Requested field: IC50. Item: COc1ccc(-c2nc3ccccn3c2C(=O)/C=C\Nc2ccc3[nH]ccc3c2)cc1
OUT: 11.3

IN: Need IC50, item COC(=O)Nc1nc2cc(C(=O)c3cccs3)ccc2[nH]1
OUT: 1.26

IN: Fill blank: measured IC50 of the compound COc1ccc(-c2nc3ccccn3c2C(=O)/C=C\Nc2ccc3cc[nH]c3c2)cc1 is ____.
OUT: 10.7

IN: Suppose we examine the compound COc1cc(N/C=C\C(=O)c2c(-c3ccc(Cl)cc3)nc3ccccn23)cc(OC)c1 ; what IC50 value has been reported?
OUT: 12

IN: What value of IC50 has been reported for the following compound? COc1cc(N/C=C\C(=O)c2c(-c3ccccc3)nc3ccccn23)cc(OC)c1
OUT: 2.92

IN: What does the data say about its IC50? Entry: COc1ccc(N/C=C\C(=O)c2c(-c3ccc(OC)cc3)nc3ccccn23)cc1
OUT: 11.1

IN: Returns the measured IC50 for the input compound. Input: O=C(/C=C\Nc1cnc2ccccc2c1)c1c(-c2ccccc2)nc2ccccn12
OUT: 2.44

IN: I have this compound here, O=C(/C=C\Nc1ccc2[nH]ccc2c1)c1c(-c2ccc(Cl)cc2)nc2ccccn12 , and I need its recorded IC50.
OUT: 1.29

IN: What measured IC50 goes with COc1ccc(N/C=C\C(=O)c2c(-c3ccccc3)nc3ccccn23)cc1 ?
OUT: 2.19

IN: Quick one: IC50 for O=C(/C=C\Nc1ccc2ncccc2c1)c1c(-c2ccccc2)nc2ccccn12 ?
OUT: 1.08

IN: Look up IC50: O=C(/C=C\Nc1cnc2ccccc2c1)c1c(-c2ccc(Cl)cc2)nc2ccccn12
OUT: 4.17

IN: For the compound shown here, O=C(/C=C\Nc1ccc2cc[nH]c2c1)c1c(-c2ccc(Cl)cc2)nc2ccccn12 , give the reported IC50.
OUT: 2.63
